Experiment: AUC in rat at 150 mg/kg, po
Type: ADME, organism-based
Design: dose 150 mg/kg, route oral
Conditions: plasma
MEASUREMENT KIND: AUC (µg·h/mL)
API: value field is a number in µg·h/mL; no unit string.

Name the recorded AUC of the item "CC(=O)Oc1ccccc1C(=O)O" in your answer. 4050
